assayed.target: UniProt P40763
Sequence (P40763 whole entry): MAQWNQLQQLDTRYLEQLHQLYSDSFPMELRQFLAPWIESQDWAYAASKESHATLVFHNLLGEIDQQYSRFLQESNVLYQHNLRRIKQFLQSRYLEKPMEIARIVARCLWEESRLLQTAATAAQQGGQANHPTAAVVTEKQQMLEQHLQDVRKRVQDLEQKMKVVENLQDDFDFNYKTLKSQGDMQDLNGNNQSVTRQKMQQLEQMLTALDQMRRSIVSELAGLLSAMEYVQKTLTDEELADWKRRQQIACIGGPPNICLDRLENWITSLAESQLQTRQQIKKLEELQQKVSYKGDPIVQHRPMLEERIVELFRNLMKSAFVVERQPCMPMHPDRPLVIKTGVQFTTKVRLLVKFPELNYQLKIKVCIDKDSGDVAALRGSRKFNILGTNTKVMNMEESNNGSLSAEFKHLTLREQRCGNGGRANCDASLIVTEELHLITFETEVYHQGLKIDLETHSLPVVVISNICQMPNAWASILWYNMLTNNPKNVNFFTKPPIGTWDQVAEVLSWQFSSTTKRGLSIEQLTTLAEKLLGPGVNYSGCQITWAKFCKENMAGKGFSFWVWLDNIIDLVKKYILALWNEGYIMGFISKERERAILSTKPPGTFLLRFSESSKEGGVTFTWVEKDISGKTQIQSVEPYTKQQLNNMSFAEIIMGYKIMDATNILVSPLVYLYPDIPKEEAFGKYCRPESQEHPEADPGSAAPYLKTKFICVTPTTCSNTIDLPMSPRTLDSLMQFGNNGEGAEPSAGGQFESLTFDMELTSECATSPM
protocol: Quantitation of STAT3 degradation in A549 cells by Western blot
Format: cell-based
Parameters: expressed in transfected cells; host or cells: A549
test.settings: read-out: A549 DC50, 24 hours, tested up to 30 μM or 10 μM
Catalogue of DC50 readings, one per entry.
assay.metric: DC50

>>> observed("C/C(=C\\C(=O)N[C@H]1CCc2cccc3c2N(C1=O)[C@H](C(=O)N[C@@H](CCC(N)=O)[C@@H](C)OCc1ccc(CCC(=O)N[C@H](C(=O)N2C[C@H](O)CC2C(=O)NCc2ccc(-c4scnc4C)cc2)C(C)(C)C)cc1)C3)c1ccc(C(F)(F)P(=O)(OCOC(=O)C(C)(C)C)OCOC(=O)C(C)(C)C)cc1 (stereo partly drawn) [Compound I-12]")
"> 30 µM"
>>> observed("C/C(=C\\C(=O)N[C@H]1CCc2cccc3c2N(C1=O)[C@H](C(=O)N[C@@H](CCC(N)=O)[C@@H](C)OCc1ccc(CCOCCOCC(=O)N[C@H](C(=O)N2C[C@H](O)C[C@H]2C(=O)NCc2ccc(-c4scnc4C)cc2)C(C)(C)C)cc1)C3)c1ccc(C(F)(F)P(=O)(OCOC(=O)C(C)(C)C)OCOC(=O)C(C)(C)C)cc1 [Compound I-31]")
"> 30 µM"
>>> observed("Cn1c(=O)n(C2CCC(=O)NC2=O)c2ccc(CCCCCC(=O)N3CC[C@H]4CC[C@@H](C(=O)N[C@@H](CCC(N)=O)C(=O)NC(c5ccccc5)c5ccccc5)N4C(=O)[C@@H](NC(=O)c4cc5cc(C(=O)P(=O)(O)O)ccc5[nH]4)C3)cc21 (stereo partly drawn) [Compound I-107]")
"< 30 µM"
